# target.of.assay: T1, monomeric soluble human CD200R extracellular domain (human, UniProt Q8TD46 29-265)
# T1 construct: extracellular domain; also called hCD200R; monomeric CD200R protein
# T1 sequence (looked up): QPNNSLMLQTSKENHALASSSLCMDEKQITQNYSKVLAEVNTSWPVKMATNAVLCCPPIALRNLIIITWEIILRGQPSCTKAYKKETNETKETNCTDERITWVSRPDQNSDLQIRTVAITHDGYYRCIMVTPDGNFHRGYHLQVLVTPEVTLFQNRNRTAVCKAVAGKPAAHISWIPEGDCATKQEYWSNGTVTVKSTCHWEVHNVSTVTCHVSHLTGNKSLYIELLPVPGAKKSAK
# test.name: SPR, captured antibody, soluble monomeric receptor injected, single cycle kinetics, 37 C
recorded.endpoint: Kd

>>> result("anti-CD200R antibody clone 3.10.2 (mIgG1k isotype) (antibody, V domains shown, Murine hybridoma antibody, IgG1 kappa) VH: QVQLQQPGSELVRPGASVKLSCKASGYTFTSYWMHWVKQRPGQGLEWIGNIFPGSDTTNYDEKFKSKAIMTVDISSSTVYMHLSSLTSEDSAVYYCITYTGAYWGQGTLVTVSA VL: DVQMIQSPSSLSASMGDIVTMTCQASQGTNINLHWFQQKPGKAPKLLISGGSNLEDGVPSRFSGSRYGTDFTLTISSLEDEDMATYFCLQFTYLPWTFGGGTKLDIKR")
"0.4 nM"
>>> result("anti-CD200R antibody clone 7.12.2 (mIgG1k isotype) (antibody, V domains shown, Murine hybridoma antibody, IgG1 kappa) VH: QVQLQQPGSELVRPGASVKLSCKASGYTFTSYWMHWVKQRPGQGLEWIGNIYPGSGTTNYDEKFKSKATLTVDTSSSTAYMQISSLTSEDSAVYYCTTGTSTYWGQGTLVTVSA VL: DVQMIQSPSSLSASLGDIVTMTCQASQGTSINLNWFQQKPGKAPKLLIYGAVNLEDGVPSRFSGSRYGTDFTLTVSSLEDEDMATYFCLQHTYLPWTFGGGTKLEIKR")
"2.9 nM"
>>> result("anti-CD200R antibody clone 21.3.1 (mIgG1k isotype) (antibody, V domains shown, Murine hybridoma antibody, IgG1 kappa) VH: QVQLQQPGSELVRPGASVKLSCKASGHTFTSYWMHWVKQRPGQGLEWIGNIYPGSGSINYDEKFKSKAKLTVDTSSRTAYMQLSSLTSEDSAVYYCLTMTGTSWGQGTLVTVSA VL: DVQMIQSPSSLSASLGDIVTMTCQASQGTPINLHWFQQKPGKAPKLLISGASNLEDGVPSRFSGSRYGTAFTLTISSLEDEDMATYFCLQFTYIPWTFGGGTKLEIKR")
"0.3 nM"
>>> result("anti-CD200R antibody clone 26.1.2 (mIgG1k isotype) (antibody, V domains shown, Murine hybridoma antibody, IgG1 kappa) VH: EVQLQQSGPELVKPGASVKMSCKASGYTFTSYVMHWVKQKPGQGLEWIGYIHPYNDDIKHNEKFKDKATLTSAKSSSTVYMELSSLTSEDSAVYYCAREEYYGSRFAYWGQGTLVTVSA VL: DIVLTQSPASLAVSLGQRATISCRASKSVRTSGYSYLHWYQQKPGQPPKLLIYLASNLESGVPARFSGSGSGTDFTLNIHPVEEEDAATYYCQYSGELPFTFGGGTKLEIKR")
"0.7 nM"
